Where do the numbers come from? From patent US7045516B1.

# Target entity: 5-HT3 receptor (Cavia porcellus)
# Construct: From ileum of Hartley male guinea pigs (500 g to 800 g) longitudinal muscle samples of about 20 mm were prepared; from tissue; host or cells: guinea pig ileum longitudinal muscle
# Sequence (O70212 20-490): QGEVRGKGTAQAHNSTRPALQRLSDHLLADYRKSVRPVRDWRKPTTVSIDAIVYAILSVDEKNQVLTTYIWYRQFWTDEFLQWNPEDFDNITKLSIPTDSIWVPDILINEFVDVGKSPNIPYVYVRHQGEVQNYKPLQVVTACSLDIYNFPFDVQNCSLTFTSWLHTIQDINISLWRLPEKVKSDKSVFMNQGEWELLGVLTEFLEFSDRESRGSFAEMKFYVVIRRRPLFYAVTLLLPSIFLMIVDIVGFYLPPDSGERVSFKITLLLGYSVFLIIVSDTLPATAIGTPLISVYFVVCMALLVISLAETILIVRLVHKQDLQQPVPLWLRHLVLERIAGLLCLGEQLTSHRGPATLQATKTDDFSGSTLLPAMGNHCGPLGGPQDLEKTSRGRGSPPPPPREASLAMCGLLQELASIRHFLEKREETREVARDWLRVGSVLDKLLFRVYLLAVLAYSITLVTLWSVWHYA
# Experiment notes: Test for 5-HT3 receptor activating action and antagonism, guinea pig ileum longitudinal muscle contraction
# Assay type: cell-based
# Experimental parameters: negative logarithm of molar concentration giving 50% maximum contraction; read-out: Activating action pD2 (converted)
# Method: From ileum of Hartley male guinea pigs (500 g to 800 g) longitudinal muscle samples of about 20 mm were prepared. The samples were suspended at a resting tension of about 0.5 g in Magnus tubes, and isometric contraction reaction was measured. The samples were treated beforehand twice with 0.3 μM of 5-HT for 1 hour to desensitize the 5-HT4 receptors, and then given with 5-HT at a concentration of 0.1 to 30 μM to examine dose-dependent contraction reaction via the 5-HT3 receptors. […]
Measured quantity: EC50 (nM)

Compound	Unit tag	EC50
Clc1cc(Cl)c2oc(N3CCCNCC3)nc2c1	nM	56.2

P. c1ccc2oc(N3CCCNCC3)nc2c1 [A, 2-(1-homopiperazinyl)benzoxazole, reference compound]
Q. Cc1c(Cl)cc2nc(N3CCCNCC3)oc2c1Cl
R. COc1cc(Cl)cc2nc(N3CCCNCC3)oc12
S. Cc1cc(Cl)cc2nc(N3CCCN(C)CC3)oc12 [E, reference compound]
Your job: order these 4 records by EC50, ascending. Enter labels, ranked according to the request.
S, Q, R, P

I. CC(C)(C)OC(=O)Nc1cc(Cl)cc2nc(N3CCCNCC3)oc12
II. Clc1cc(NCc2ccccc2)c2oc(N3CCCNCC3)nc2c1
Kindly identify which of I and II has the larger recorded EC50 value. State your choice using its label.
I

###

# Target entity: 5-HT3 receptor (Cavia porcellus, UniProt O70212)
# Construct: From ileum of Hartley male guinea pigs (500 g to 800 g) longitudinal muscle samples of about 20 mm were prepared; from tissue; host or cells: guinea pig ileum longitudinal muscle
# Experiment notes: Test for 5-HT3 receptor activating action and antagonism, guinea pig ileum longitudinal muscle contraction
# Type: cell-based
# Experimental parameters: inhibitory ratio of contraction by 10 μM 5-HT in sample treated beforehand with 10 μM compound; guinea pig ileum longitudinal muscle
Measured quantity: inhibition at 10 µM (%)

Record smiles	inhibition at 10 µM (%)
Clc1cc(NCc2ccccc2)c2oc(N3CCCNCC3)nc2c1	88
COc1cc(Cl)cc2nc(N3CCCNCC3)oc12	88
Cc1cc(Cl)cc2nc(N3CCCNCC3)oc12	95
Clc1cc(Cl)c2oc(N3CCCNCC3)nc2c1	97
